Test system: Aβ production in 293 751 SWE and CHO 751 SWE cells (transfected with APP-751 Swedish mutation)
Assay: Aβ production inhibition activity in cells (Aβ ELISA of conditioned media, normalized for cytotoxicity by MTT)
Type: cell-based
Conditions: 10 μg/ml, % of drug-free control, normalized to MTT
So I've got a bunch of molecules here, and I need their inhibition at 10 µg/mL values.
Give your result in % as a bare value.

# input Given the entry Cc1nnc(NC(=O)Nc2c(C)cccc2C)s1 [Compound 251] , report its measured inhibition at 10 µg/mL.
# output -13

# input Param item: CCCc1c(NC(=S)Nc2ccc(C(C)(C)C)cc2)ccc(C(=O)c2ccccc2)c1O [Compound 203]
# output 2

# input Subsequent entry: CCCCCCNC(=S)N(Cc1cccc(Oc2ccc(C(C)(C)C)cc2)c1)OC [Compound 43]
# output 16

# input Query CNC(=O)Nc1nnc(Br)s1 [Compound 253] next
# output 2

# input How about COc1ccc(NC(=O)Nc2ccc(Cl)c(Cl)c2)c(OC)c1 [Compound 144] ?
# output 41

# input And for CCCCOc1ccc(COc2cccc(CN(O)C(=S)NCc3ccccc3)c2)cc1 [Compound 66] ?
# output 21

# input Try this molecule next: Cc1cccc(CNC(=S)N(O)Cc2ccc(-c3ccccc3)cc2)c1 [Compound 79]
# output 15

# input Query COc1ccc(CNC(=S)N(O)C(C)c2cccc(Oc3ccc(C(C)(C)C)cc3)c2)cc1OC (centres unmarked) [Compound 11] next
# output 31

# input COc1ccccc1CNC(=S)Nc1ccc(Oc2ccc(C(C)(C)C)cc2)cc1 [Compound 109] ?
# output 37

# input Follow-up entry: CCCCCCNC(=S)Nc1ccccc1Oc1ccc(C(C)(C)C)cc1 [Compound 185]
# output 21

# input Proceed to Cc1cccc(CNC(=S)N(O)Cc2ccc(-c3ccc(C(C)(C)C)cc3)cc2)c1 [Compound 82]
# output 30

From: patent US5814646A
